# Tested on: Wolbachia pipientis
# PROTOCOL_NOTES: Anti-Wolbachia Cell-Based Screen
# Format: functional
# Parameters: scale not given: in the data most compounds retested in dose-response had high values
# PARTICULARS: 5 µM
The whole screen tested about 48,000 compounds, of which about 13,000 (27%) showed an effect of 50% or more. The list shows a part of the results.
MEASURED_ENDPOINT: Percent Effect (%)

CSc1nccc(-c2cccc(-c3ccn(CC4COCCO4)n3)c2)n1 (stereo not given) | -11.46
COc1ccc(CN(C)Cc2nc3c(cnn3C)c(=O)[nH]2)cc1OC | 10.06
CC(=O)N(C)C(c1cccc(F)c1)c1ccccn1 (stereo not given) | 87.32
O=C(O)c1coc(COc2cccc3cnccc23)n1 | -2.104
CN(C)CCN(Cc1ccccn1)C(=O)Nc1cccc(F)c1 | 19.37
CC(=O)N1CCC(c2nc(Cc3ccccc3)no2)C1 (stereo not given) | -18.53
CN(C)C(C(=O)NCC(F)(F)F)c1cccc(F)c1 (stereo not given) | -4.686
CCc1ccc(CN2C[C@@H]3COC[C@H](NS(C)(=O)=O)[C@@H]3C2)o1.O=C(O)C(F)(F)F | 136.7
O=C([C@@H]1CCO[C@@H]2CCN(Cc3ccco3)C[C@H]21)N1CCCCO1 | 1.589
CC(C)OCCCNC(=O)CN1CCC(N2CCN(C)C2=O)CC1 | -1.952
CCN(Cc1ccc(F)c(F)c1)Cc1nc2c(cnn2C)c(=O)[nH]1 | 128.6
CCN(CC)CC(=O)Nc1ccc(-n2ccc(C(N)=O)n2)cc1 | -9.684
O=C1CCC(c2nc(C3CCNCC3)no2)N1 (stereo not given) | 104.8
Cc1noc(C2CCN(CC(=O)N3CCNC(=O)C3)CC2)n1 | -10.42
O=C(NC[C@H]1OC[C@@H](NC2CCCCC2)[C@@H]1O)c1cccs1 | 2.272
CCN(CC)S(=O)(=O)NCCc1cc(C)ccc1OC | 2.679
Cc1ccc(C)c(CS(=O)(=O)CC(=O)NCCCOC(C)C)c1 | 103.7
O=C1NCCCc2[nH]c(-c3nc(C4CC4)no3)nc21 | -6.286
CCN(Cc1ccc(OC)c(F)c1)Cc1nc2c(cnn2C)c(=O)[nH]1 | 142.5
O=C(CCc1cscn1)NS(=O)(=O)c1ccc2c(c1)CCC2 | 0.3885
CCCn1cnnc1CNC(=O)CC1C(=O)NCCN1C(C)C (stereo not given) | -4.75
Cc1ccccc1C(=O)N1CCO[C@H]2[C@H](OCCN(C)C)CC[C@@H]21.O=C(O)C(F)(F)F | 99.34
Cc1occc1C(=O)N1CCO[C@H]2[C@H](OCc3ccccn3)CC[C@@H]21.O=C(O)C(F)(F)F | -3.941
O=C1CCC2(CCCN(C(=O)Cc3cccs3)C2)N1 (stereo not given) | -20.18
Cc1cc(C2CCCN2C(=O)Cn2c(C)cc(=O)c3ccccc32)on1 (stereo not given) | -2.941
CC(C)(C)c1ccc(C2(C(=O)NCCCS(C)(=O)=O)CC2)cc1 | -6.927
Cc1ccc(CN2CC(C(=O)Nc3ccccc3)C3(CCOCC3)C2)s1.O=C(O)C(F)(F)F (stereo not given) | -15.56
Cc1ccc(CN2C[C@@H]3COC[C@@H](NS(C)(=O)=O)[C@@H]3C2)o1.O=C(O)C(F)(F)F | -14.86
CC(C)SCC(=O)N1CCc2c(nc(N(C)C)nc2N(C)C)C1 | -6.369
CC(C)OCCCNC(=O)CS(=O)(=O)Cc1ccc(C(C)(C)C)cc1 | 103.7
CCN(Cc1nc2c(cnn2C)c(=O)[nH]1)c1cccc(Cl)c1 | -0.7695
O=C1NCCCc2[nH]c(-c3nc(C4CCCCC4)no3)nc21 | 4.619
CCC(CC)(CNC(=O)OC(C)(C)C)NC(=O)c1cnccn1 | 8.305
O=C(Nc1cccs1)N1CC(c2nc(C3CC3)no2)C1 | 10.74
CCc1nc(NC(=O)NCCc2scnc2C)nn1C | 3.208
CC(C)(C)CCN1CCN(Cn2nccc2-c2cccnc2)CC1 | -19.45
Cc1nc(C2CCCN(C(=O)C(C)(C)n3cc(Cl)cn3)C2)no1 (stereo not given) | -4.996
Cc1nc(C(=O)N(Cc2c(C)nn(C)c2C)C(C)C)cs1 | 0.2586
Cc1ccc(CN2CCOC3(COCCN(S(C)(=O)=O)C3)C2)s1.O=C(O)C(F)(F)F (stereo not given) | -6.803
Cc1ccc(CN2C[C@@H]3COC[C@H](NS(C)(=O)=O)[C@@H]3C2)o1.O=C(O)C(F)(F)F | 6.614
